Sourced from the MegaScale stability set (Tsuboyama et al. 2023)

B1: EEHEE_rd4_0003 (parent)
chain: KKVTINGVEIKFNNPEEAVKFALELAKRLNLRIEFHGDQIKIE

# Variants of: B1
# experiment-notes: folding stability dG (cDNA display proteolysis); higher = more stable
# assay-conditions: PBS, room temperature
Label False if folding stability dG falls below 2 kcal/mol; label True in every other case.

1. K2N	True
2. L31W	True
3. L31Q	False
4. I33G	False
5. K11P	True
6. I10C	True
7. K27R	True
8. L29P	False

Does the variant I33A have recorded folding stability dG that is 2 kcal/mol or more?
False

Does the variant E17P have recorded folding stability dG that is 2 kcal/mol or more?
False

Does the variant V19Y have recorded folding stability dG that is 2 kcal/mol or more?
True

Does the variant I42V have recorded folding stability dG that is 2 kcal/mol or more?
True

Does the variant H36C have recorded folding stability dG that is 2 kcal/mol or more?
True

Does the variant E34F have recorded folding stability dG that is 2 kcal/mol or more?
True

Does the variant F12G have recorded folding stability dG that is 2 kcal/mol or more?
False

Does the variant G37M have recorded folding stability dG that is 2 kcal/mol or more?
True

Does the variant N6E have recorded folding stability dG that is 2 kcal/mol or more?
False

Does the variant N13S have recorded folding stability dG that is 2 kcal/mol or more?
True

Does the variant L25Q have recorded folding stability dG that is 2 kcal/mol or more?
False

Does the variant V3T have recorded folding stability dG that is 2 kcal/mol or more?
False

Does the variant Q39A have recorded folding stability dG that is 2 kcal/mol or more?
True

Does the variant K1Q have recorded folding stability dG that is 2 kcal/mol or more?
True
